# composite z-score values compiled below
- Test system: Wnt5a (protein binding on small-molecule microarray)
- method summary: Wnt5a binders on small-molecule microarray, primary screen, biophysical, 635/667 nm fluorescence (AID 1142);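 note: fluorescence read at 667 nm with signal to noise per printed feature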
- measurement parameters: 635 nm fluorescence, higher = more signal
Answer with a number only.

Worked cases, composite z-score given:
>>> value("CC(C)c1ccc(NN2C(C(O)c3ccc(B(O)O)cc3)C=CC3C(=O)N(c4ccccc4)C(=O)C32)cc1 (stereo not given)")
0.262
>>> value("CCS[C@H]1[C@@H](C(=O)O)[C@H](c2ccc(C)cc2)N(S(=O)(=O)c2ccc(C)cc2)[C@@H]1CC")
0.261
>>> value("OCCCC1=CC(c2cccs2)N(Cc2cc3c(cc2Br)OCO3)CC1 (stereo not given)")
-0.094
>>> value("COc1ccc([Si](C)(C)[C@@H]2[C@@H](CCO)O[C@]3(C(=O)N(Cc4ccc(N(C=O)c5ccccc5)cc4)c4ccccc43)[C@H]2C)cc1")
0.0862
>>> value("COC(=O)[C@H](Cc1ccccc1)N[C@@H](/C=C/C1CC1)[C@H](O)Cc1ccccc1")
1.2
>>> value("CCCC#C[Si](O[C@H](CC)c1cn(Cc2cccc(Cl)c2)nn1)(C(C)C)C(C)C")
0.227

May I ask what composite z-score has been recorded for "COC(=O)[C@@]1(Cc2ccc(OC)cc2)[C@H]2c3cc(C(=O)N(C)C)n(C)c3C[C@H]2CN1C(=O)c1ccccc1" ? 0.485

----------
- Tested on: Noggin (protein binding on small-molecule microarray)
- method summary: Noggin binders on small-molecule microarray, primary screen, biochemical, 635/667 nm fluorescence (AID 1095);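 note: score merges 667 nm feature fluorescence with signal to noise over triplicate slides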
- measurement parameters: 635 nm fluorescence, higher = more signal
measured endpoint: composite z-score

>>> value("CCCC=C(CCC)[C@@H](NC(=O)c1cccs1)c1ccc(C(F)(F)F)cc1")
0.989
>>> value("O=C(CS)NCCCCCCNC(=O)[C@@H]1C[C@@H]2C(=O)N[C@@H](Cc3ccccc3)C(=O)N2[C@@H]1c1cccc(OCCO)c1")
0.988
>>> value("C=CCOC(=O)[C@H]1[C@@H]2C(=O)O[C@@H](c3ccccc3)[C@@H](c3ccccc3)N2[C@@H](c2ccc(OCCOC(=O)[C@@H]3C[C@@H]4C(=O)N[C@@H](CCCCNC(C)=O)C(=O)N4[C@@H]3c3ccc(O)cc3)cc2)[C@]12C(=O)Nc1ccccc12")
1.14

May I ask what composite z-score has been recorded for O=C(NCCN1CCOCC1)C1N=C(c2ccc(OCCCO)cc2)N(c2ccccc2)O1 (stereo unspecified) ? 1.19

May I ask what composite z-score has been recorded for CN1C(=O)C2C=CC(C(O)c3ccccc3)N(N(c3ccccc3)c3ccccc3)C2C1=O (stereo unspecified) ? 0.141

May I ask what composite z-score has been recorded for O=C1OCCC/C=C\[C@H]2OC34C=CCN(Cc5ccccc5)C(=O)[C@H]3N(CCCO)C(=O)[C@@H]4C12 (stereo partly specified) ? -1.75

----------
# z-score values compiled below
- method summary: cell viability in Huh7 cells, primary screen, cytotoxicity control for HCV replication inhibitor project, CellTiter-Glo luminescence, basal, 48 h (AID 1143);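 note: Huh7 hepatoma cells carrying a hepatitis C replication reporter with no stimulus; test concentration not given here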
- measurement parameters: Huh7 HCV replicon, higher = more signal, called active from +8 up or from −8 down
Answer with a number only.

May I ask what z-score has been recorded for C=CCC(OC(C)=O)[C@@H]1[C@@H](N(Cc2ccc(-c3ccccc3)cc2)C(=O)c2ccc(-c3ccccc3)cc2)c2cc(OCCCO)ccc2N1C(=O)Cc1ccc2ccccc2c1 (stereo not given in full) ? 0.315

May I ask what z-score has been recorded for CC1CC/C=C\[C@H]2OC34C=CCN(C(C)(C)C)C(=O)[C@H]3N(CCO)C(=O)[C@@H]4C2C(=O)O1 (stereo not given in full) ? -0.973
